Attribute: binding normalized to PSGL-1
target.of.assay: T1, Sulfotyrosine D6 biotin peptide (human)
T1 construct: also called D6 peptide
T1 peptide: ENSSFY[sY][sY]D[sY]LDEVAFGGK(Biotin)
procedure.summary: ELISA, 50 nM mAb
Non-standard residues stand in square brackets, D forms with d. No end group written: not given here. *: point of attachment. Biotin = O=C1N[C@H]2[C@H](CS[C@H]2CCCCC(=O)*)N1; sY = N[C@@H](Cc1ccc(OS(=O)(=O)O)cc1)C(=O)O

binder	binding normalized to PSGL-1
19I01 (antibody, V domains shown, From mouse immunisation; only variable domains given; also called 19101) VH: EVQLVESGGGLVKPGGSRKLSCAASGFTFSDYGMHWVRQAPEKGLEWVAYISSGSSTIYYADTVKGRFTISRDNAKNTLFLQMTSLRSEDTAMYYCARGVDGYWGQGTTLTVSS VL: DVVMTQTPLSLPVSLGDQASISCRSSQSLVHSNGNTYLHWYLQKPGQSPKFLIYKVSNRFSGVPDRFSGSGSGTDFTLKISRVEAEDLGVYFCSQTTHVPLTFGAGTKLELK	0.02
06C04 (antibody, IgG4, V domains shown) VH: EVQLVESGGGLVQPGGSLRLSCAASGFTFSDHYMDWVRQAPGKGLEWVGRSRNKVKSYTTAYAASVEGRITISRDDSKNSLYLEMNSLKTEDTAVYYCVRVRWGGAFDIWGQGTMVTVSS VL: QPVLTQPPSASGSPGQSVTISCTGTSSDVGGYNYVSWYQQHPGKAPKLMIYEVSKRPSGVPDRFSGSKSGNTASLTVSGLQAEDEADYYCSSYAGSNNLRVFGGGTKLTVL	0.26
09D11 (antibody, IgG4, V domains shown) VH: QVQLVESGGGFIQPGGSLRLSCAASGLTFSNYAMTWVRQAPGKGLEWVSTISGGGGNTYYTDSVKGRFTISRDNSKNTLYLQMNSLKAEDTAVYRCAKGLAAALFDYWGQGTLVTVSS VL: DIVLTQSPDSLPVTPGEPASISCRSSRSLLHSNGHNFLAWYLQKPGQSPHLLIYLGSNRASGVPDRFSGSGSGTDFTLKISRVEAEDVGIYYCMQALQTPITFGQGTRLDIK	0.26
02E01 (antibody, IgG4, V domains shown) VH: EVQLVQSGGGVVQPGRSLRLSCAASGFTFSRYGMHWVRQAPGKGLEWVSVISYDGNNKYYADSVKGRFTISRDNSKNTVYLQMNSLRADDTAVYYCARNVPVTNFGYWGQGTLVTVSS VL: QSALTQPASVSGSPGQSITISCTGTSSDVGGYNYVSWYQQHPGKAPKLMIYDVSKRPSGVSNRFSGSKSGNTASLTISGLQAEDEADYYCSSYTRPGRVFGGGTKLTVL	1.48
16L15 (antibody, V domains shown, From mouse immunisation; only variable domains given) VH: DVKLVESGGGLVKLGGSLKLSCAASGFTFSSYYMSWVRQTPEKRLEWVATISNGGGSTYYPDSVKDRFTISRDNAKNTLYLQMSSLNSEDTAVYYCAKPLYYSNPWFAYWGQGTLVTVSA VL: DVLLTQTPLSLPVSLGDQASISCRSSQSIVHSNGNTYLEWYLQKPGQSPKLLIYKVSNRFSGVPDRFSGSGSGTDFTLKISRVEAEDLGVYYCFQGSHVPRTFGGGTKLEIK	0.06
05D01 (antibody, V domains shown) VH: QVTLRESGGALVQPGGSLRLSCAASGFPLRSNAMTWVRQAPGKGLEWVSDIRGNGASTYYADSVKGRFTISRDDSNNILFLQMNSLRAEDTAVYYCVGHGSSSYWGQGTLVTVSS VL: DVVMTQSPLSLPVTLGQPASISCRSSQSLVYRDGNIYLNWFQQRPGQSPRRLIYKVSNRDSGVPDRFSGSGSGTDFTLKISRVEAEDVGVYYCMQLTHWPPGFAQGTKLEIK	0.84
18F02 (antibody, V domains shown, From mouse immunisation; only variable domains given) VH: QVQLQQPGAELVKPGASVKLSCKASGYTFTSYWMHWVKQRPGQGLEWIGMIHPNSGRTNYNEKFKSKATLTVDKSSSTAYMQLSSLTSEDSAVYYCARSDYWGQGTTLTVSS VL: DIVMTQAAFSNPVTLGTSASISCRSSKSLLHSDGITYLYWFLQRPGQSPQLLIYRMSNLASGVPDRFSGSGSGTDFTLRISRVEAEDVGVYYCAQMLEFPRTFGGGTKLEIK	0.09
05A07 (antibody, IgG4, V domains shown) VH: QVQLVQSGSEVKRPGASVKVSCKTSGYTFSNYGIAWVRQAPGQGLEWVGWVSAYNGKTGASQKLQGRVTMTTDRSTTTAYLELRSLQSDDTAVYYCARGVKGGLTGYARDYWGQGTLVIVSS VL: DIVLTQSPRSLPVTLGQPASISCRSSQSLVNRAGDTYLNWFQQRPGQSPRRLIYKVSNRDSGVPDRFSGSGSGTDFTLKISRVEAEDVGVYYCMQGTQWPYTFGQGTKLEIK	1.22
03D07 (antibody, IgG4, V domains shown) VH: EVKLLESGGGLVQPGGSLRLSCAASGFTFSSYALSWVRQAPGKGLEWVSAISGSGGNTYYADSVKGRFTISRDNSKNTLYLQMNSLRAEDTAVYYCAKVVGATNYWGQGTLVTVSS VL: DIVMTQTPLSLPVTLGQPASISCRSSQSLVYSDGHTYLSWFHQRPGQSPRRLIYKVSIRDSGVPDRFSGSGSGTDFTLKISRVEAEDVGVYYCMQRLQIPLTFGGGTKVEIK	0.28
